# Tested on: Ent. faecium ATCC 8043
# Run description: in vitro antibacterial activity (MIC), conventional agar dilution
# Format: cell-based
# Particulars: Enterococcus faecium, ATCC8043, brain-heart infusion agar, inoculum 10^4 /plate
Assay readout: MIC (µg/mL)

Reference set (5 entries):
CCn1c2s[nH]c(=O)c2c(=O)c2cc(F)c(N3CCNCC3)c(F)c21	0.2
CCn1c2s[nH]c(=O)c2c(=O)c2cc(F)c(N3CCC(N)C3)c(F)c21 (stereo not drawn)	0.2
CC1CN(c2cc3c(cc2F)c(=O)c2c(=O)[nH]sc2n3-c2ccc(F)cc2F)CC1N (stereo not drawn)	0.2
CCn1c2cc(N3CCN(C)CC3)c(F)cc2c(=O)c2c(=O)[nH]sc21	0.2
CN1CCN(c2cc3c(cc2F)c(=O)c2c(=O)[nH]sc2n3-c2ccc(F)cc2)CC1	1.56

1: CCn1c2cc(N3CCCC3)c(F)cc2c(=O)c2c(=O)[nH]sc21
2: Cl.NC1CCN(c2cc3c(cc2F)c(=O)c2c(=O)[nH]sc2n3C2CC2)C1 (stereo not drawn)
[ask] // task: argmin of MIC over [ 1 , 2 ] Mark your selection by writing its label.
[reply] 2

* * *

# System: Stap. aureus ATCC-6538p
# Run description: in vitro antibacterial activity (MIC), conventional agar dilution
# Assay type: cell-based
# Particulars: Staphylococcus aureus, ATCC6538P, brain-heart infusion agar, inoculum 10^4 /plate
Assay readout: MIC (µg/mL)

CCn1c2s[nH]c(=O)c2c(=O)c2cc(F)c(N3CCN(C)CC3)c(F)c21	0.1

A: CCn1c2cc(N3CCCC3)c(F)cc2c(=O)c2c(=O)[nH]sc21
B: Cl.NC1CCN(c2cc3c(cc2F)c(=O)c2c(=O)[nH]sc2n3C2CC2)C1 (stereo not drawn)
C: O=c1[nH]sc2c1c(=O)c1cc(F)c(N3CCNCC3)cc1n2-c1ccc(F)cc1
[ask] Rank order required: MIC, descending. Enter labels, ranked according to the request.
[reply] C, B, A

a: CCn1c2cc(N3CCNC(C)C3)c(F)cc2c(=O)c2c(=O)[nH]sc21 (stereo not drawn)
b: CCn1c2s[nH]c(=O)c2c(=O)c2cc(F)c(N3CCNC(C)C3)c(F)c21 (stereo not drawn)
[ask] Could you point out whether the larger MIC belongs to a or to b ? Mark your selection by writing its label.
[reply] b

A: CN1CCN(c2cc3c(cc2F)c(=O)c2c(=O)[nH]sc2n3-c2ccc(F)cc2)CC1
B: CC1CN(c2cc3c(cc2F)c(=O)c2c(=O)[nH]sc2n3-c2ccc(F)cc2F)CC1N (stereo not drawn)
[ask] // task: argmin of MIC over [ A , B ] Mark your selection by writing its label.
[reply] A
(A: 0.01 µg/mL, B: 0.05 µg/mL)

1: CCn1c2s[nH]c(=O)c2c(=O)c2cc(F)c(N3CCC(N)C3)c(F)c21 (stereo not drawn)
2: CC1CN(c2cc3c(cc2F)c(=O)c2c(=O)[nH]sc2n3-c2ccc(F)cc2)CCN1 (stereo not drawn)
[ask] // task: argmin of MIC over [ 1 , 2 ] Mark your selection by writing its label.
[reply] 2
(2: 0.01 µg/mL, 1: 0.05 µg/mL)

a: CCn1c2cc(N3CCN(C)CC3)c(F)cc2c(=O)c2c(=O)[nH]sc21
b: O=c1[nH]sc2c1c(=O)c1cc(F)c(N3CCC(O)C3)cc1n2C1CC1 (stereo not drawn) [46(ss)]
[ask] Could you point out whether the larger MIC belongs to a or to b ? Mark your selection by writing its label.
[reply] a

* * *

# Tested on: Acinetobacter sp CMX 669
# Run description: in vitro antibacterial activity (MIC), conventional agar dilution
# Format: cell-based
# Particulars: CMX669, brain-heart infusion agar, inoculum 10^4 /plate
Assay readout: MIC (µg/mL)

Reference set (8 entries):
O=c1[nH]sc2c1c(=O)c1cc(F)c(N3CCNCC3)cc1n2C1CC1 [46(zz)]	0.05
CC1CN(c2cc3c(cc2F)c(=O)c2c(=O)[nH]sc2n3-c2ccc(F)cc2F)CC1N (stereo not drawn)	0.1
Cl.NC1CCN(c2cc3c(cc2F)c(=O)c2c(=O)[nH]sc2n3C2CC2)C1 (stereo not drawn)	0.05
CCn1c2cc(N3CCNCC3)c(F)cc2c(=O)c2c(=O)[nH]sc21	0.39
CC1CN(c2cc3c(cc2F)c(=O)c2c(=O)[nH]sc2n3-c2ccc(F)cc2)CCN1 (stereo not drawn)	0.1
CCn1c2cc(N3CCCC3)c(F)cc2c(=O)c2c(=O)[nH]sc21	0.2
CCn1c2cc(N3CCNC(C)C3)c(F)cc2c(=O)c2c(=O)[nH]sc21 (stereo not drawn)	0.2
CCn1c2s[nH]c(=O)c2c(=O)c2cc(F)c(N3CCNCC3)c(F)c21	0.2

1: CCn1c2s[nH]c(=O)c2c(=O)c2cc(F)c(N3CCC(N)C3)c(F)c21 (stereo not drawn)
2: O=c1[nH]sc2c1c(=O)c1cc(F)c(N3CCC(O)C3)cc1n2C1CC1 (stereo not drawn) [46(ss)]
3: CCn1c2cc(N3CCN(C)CC3)c(F)cc2c(=O)c2c(=O)[nH]sc21
4: CN1CCN(c2cc3c(cc2F)c(=O)c2c(=O)[nH]sc2n3-c2ccc(F)cc2)CC1
[ask] Rank order required: MIC, descending. Enter labels, ranked according to the request.
[reply] 4, 1, 3, 2

a: O=c1[nH]sc2c1c(=O)c1cc(F)c(N3CCNCC3)cc1n2-c1ccc(F)cc1
b: CCn1c2s[nH]c(=O)c2c(=O)c2cc(F)c(N3CCNC(C)C3)c(F)c21 (stereo not drawn)
[ask] // task: argmin of MIC over [ a , b ] Mark your selection by writing its label.
[reply] b

* * *

# Test system: Stap. epidermis 3519
# Run description: in vitro antibacterial activity (MIC), conventional agar dilution
# Assay type: cell-based
# Particulars: brain-heart infusion agar, inoculum 10^4 /plate
# Description: The in vitro antibacterial activity is determined by conventional agar dilution procedures. A brain-heart infusion agar medium containing the drug is inoculated with a microbial culture cultivated on a brain-infusion broth (Difco 0037-01-6) at 36° C. for 18 hours and then observes for growth of the microorganism. The minimum concentration at which growth of the microorganism is inhibited is taken as MIC (ug/ml). The inoculum size is 10^4 /plate.
Assay readout: MIC (µg/mL)

Reference set (5 entries):
O=c1[nH]sc2c1c(=O)c1cc(F)c(N3CCNCC3)cc1n2-c1ccc(F)cc1	0.2
CCn1c2s[nH]c(=O)c2c(=O)c2cc(F)c(N3CCNCC3)c(F)c21	0.05
CCn1c2cc(N3CCNCC3)c(F)cc2c(=O)c2c(=O)[nH]sc21	0.2
CCn1c2cc(N3CCNC(C)C3)c(F)cc2c(=O)c2c(=O)[nH]sc21 (stereo not drawn)	0.1
O=c1[nH]sc2c1c(=O)c1cc(F)c(N3CCNCC3)cc1n2C1CC1 [46(zz)]	0.05

1: Cl.NC1CCN(c2cc3c(cc2F)c(=O)c2c(=O)[nH]sc2n3C2CC2)C1 (stereo not drawn)
2: CCn1c2s[nH]c(=O)c2c(=O)c2cc(F)c(N3CCNC(C)C3)c(F)c21 (stereo not drawn)
3: CCn1c2cc(N3CCN(C)CC3)c(F)cc2c(=O)c2c(=O)[nH]sc21
4: O=c1[nH]sc2c1c(=O)c1cc(F)c(N3CCC(O)C3)cc1n2C1CC1 (stereo not drawn) [46(ss)]
[ask] Rank order required: MIC, descending. Enter labels, ranked according to the request.
[reply] 2, 3, 1, 4

a: CN1CCN(c2cc3c(cc2F)c(=O)c2c(=O)[nH]sc2n3-c2ccc(F)cc2)CC1
b: CC1CN(c2cc3c(cc2F)c(=O)c2c(=O)[nH]sc2n3-c2ccc(F)cc2F)CC1N (stereo not drawn)
c: CCn1c2cc(N3CCCC3)c(F)cc2c(=O)c2c(=O)[nH]sc21
[ask] Exam item: list the entries in increasing order of MIC. Enter labels, ranked according to the request.
[reply] c, b, a
(c: 0.02 µg/mL, b: 0.1 µg/mL, a: 0.2 µg/mL)

* * *

# Test system: P. stuartii CMX 640
# Run description: in vitro antibacterial activity (MIC), conventional agar dilution
# Assay type: cell-based
# Particulars: Providencia stuartii, CMX640, brain-heart infusion agar, inoculum 10^4 /plate
Assay readout: MIC (µg/mL)
Respond with the bare value in µg/mL.

CCn1c2cc(N3CCNCC3)c(F)cc2c(=O)c2c(=O)[nH]sc21 [46(m)]	0.39

Next up:
[ask] Which MIC value belongs to O=c1[nH]sc2c1c(=O)c1cc(F)c(N3CCNCC3)cc1n2-c1ccc(F)cc1 [46(yy)] ?
[reply] 3.1

* * *

# Tested on: Ent. faecium ATCC 8043
# Run description: in vitro antibacterial activity (MIC), conventional agar dilution
# Assay type: cell-based
# Particulars: Enterococcus faecium, ATCC8043, brain-heart infusion agar, inoculum 10^4 /plate
# Method: The in vitro antibacterial activity is determined by conventional agar dilution procedures. A brain-heart infusion agar medium containing the drug is inoculated with a microbial culture cultivated on a brain-infusion broth (Difco 0037-01-6) at 36° C. for 18 hours and then observes for growth of the microorganism. The minimum concentration at which growth of the microorganism is inhibited is taken as MIC (ug/ml). The inoculum size is 10^4 /plate.
Assay readout: MIC (µg/mL)

a: CCn1c2s[nH]c(=O)c2c(=O)c2cc(F)c(N3CCNC(C)C3)c(F)c21 (centres unmarked)
b: O=c1[nH]sc2c1c(=O)c1cc(F)c(N3CCC(O)C3)cc1n2C1CC1 (centres unmarked) [46(ss)]
c: CCn1c2s[nH]c(=O)c2c(=O)c2cc(F)c(N3CCN(C)CC3)c(F)c21
[ask] Put the above compounds in order of rising MIC, beginning with the smallest. Enter labels, ranked according to the request.
[reply] b, c, a
(b: 0.2 µg/mL, c: 0.39 µg/mL, a: 0.78 µg/mL)
